assayed target: RIPK1 (Homo sapiens (Human), UniProt Q13546)
Sequence (Q13546 1-327): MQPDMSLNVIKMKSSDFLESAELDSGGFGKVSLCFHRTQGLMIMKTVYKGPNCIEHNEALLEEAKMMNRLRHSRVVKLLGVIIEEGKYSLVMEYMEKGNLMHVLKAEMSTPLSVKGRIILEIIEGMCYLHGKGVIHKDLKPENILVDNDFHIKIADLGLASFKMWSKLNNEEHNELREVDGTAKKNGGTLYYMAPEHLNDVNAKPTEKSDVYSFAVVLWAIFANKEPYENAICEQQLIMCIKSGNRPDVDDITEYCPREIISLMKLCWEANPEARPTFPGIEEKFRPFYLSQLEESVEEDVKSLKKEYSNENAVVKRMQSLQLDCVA
pIC50: −log10 of the molar value.
assay endpoint: pIC50

Some solved entries appear below for comparison.
>  <compound>
Cc1ccc(NC(=O)c2nn(-c3ccccc3)c(C)cc2=O)cc1 [Example 97]

>  <readout value>
4.93

$$$$
>  <compound>
Cc1cc(=O)c(C(=O)NC(c2ccccc2)C2CC2)nn1-c1ccccc1 (stereo not shown) [Example 98]

>  <readout value>
5.45

$$$$
>  <compound>
Cc1cccc(NC(=O)c2nn(-c3ccccc3F)c(C)cc2=O)c1 [Example 107]

>  <readout value>
4.69

$$$$
>  <compound>
Cc1cc(=O)c(C(=O)NC2CCc3ccccc3N(C)C2=O)nn1-c1ccccc1 (stereo not shown) [Example 41]

>  <readout value>
7.46

$$$$

A = Cc1cc(=O)c(C(=O)Nc2cccc(F)c2)nn1-c1ccccc1 [Example 93]
B = Cc1cc(=O)c(C(=O)Nc2ccccn2)nn1-c1ccccc1 [Example 106]
C = Cc1n[nH]c(C)c1NC(=O)c1nn(-c2ccccc2)c(C)cc1=O [Example 19]
Put the compounds in ascending order of pIC50. Please respond by ranking the labels in the order requested.
C, B, A
(C: 4.90, B: 5.75, A: 6.55)

----------
List of IC50 values.
Test system: human monocytic cell line U937
test summary: Human U937 Cellular Necroptosis Assay
Type: cell-based
experimental context: U-937; U937 cells stimulated with 25 ng/mL human TNFalpha and 25 μM z-VAD-FMK, 22 hr, viability by Cell Titer-Glo 2.0; average value across multiple runs; read-out: hU937 IC50
Experimental: Human U937 Cellular Necroptosis Assay The human monocytic cell line U937 (CRL-1593.2) was purchased from ATCC. […] After 22 hr, viability was assessed with the addition of 20 μL of Cell Titer-Glo 2.0 (Promega, Catalog #G9243). […] Luminescence was measured using a PerkinElmer Envision™ plate reader. IC50 values were calculated using a four-parameter logistic curve fit using Genedata Screener software. […]
Give just the number in nM; leave the unit off.

>  <compound>
Cc1cc(=O)c(C(=O)NC2CCc3ccccc3NC2=O)nn1-c1cccc(C#N)c1 (centres unmarked) [Example 53]

>  <IC50 (nM)>
591

$$$$

IC50 lookup needed for Cc1ccc(-n2nc(C(=O)N[C@H]3COc4cccnc4N(C)C3=O)c(=O)cc2C)cc1 [Example 77] , thanks.
26.5

IC50 lookup needed for Cc1cc(=O)c(C(=O)NC2CCc3ccccc3NC2=O)nn1-c1ccccc1 (centres unmarked) [Example 38] , thanks.
82

IC50 lookup needed for Cc1cc(=O)c(C(=O)N[C@H]2COc3cc(C#N)ccc3N(C)C2=O)nn1-c1cccc(F)c1 [Example 61] , thanks.
88

IC50 lookup needed for O=C(NC1CCc2ccccc2NC1=O)c1nn(-c2ccccc2)c2ccccc2c1=O (centres unmarked) [Example 70] , thanks.
227

IC50 lookup needed for Cc1ccc(-n2nc(C(=O)N[C@H]3COc4cccnc4N(C)C3=O)c(=O)c(Cl)c2C)cc1F [Example 82] , thanks.
56.4

IC50 lookup needed for COc1cccc(-n2nc(C(=O)NC3CCc4ccccc4NC3=O)c(=O)cc2C)c1 (centres unmarked) [Example 67] , thanks.
281

IC50 lookup needed for Cc1cc(=O)c(C(=O)Nc2cccc(Cl)c2F)nn1-c1cc(F)ccc1F [Example 9] , thanks.
170
